Recorded measurements of DC50, one per entry
study-system: HiBit-KRAS^G12C (Homo sapiens, UniProt P01116, G12C)
Sequence (P01116 1-186 isoform P01116-2 G12C limits assumed): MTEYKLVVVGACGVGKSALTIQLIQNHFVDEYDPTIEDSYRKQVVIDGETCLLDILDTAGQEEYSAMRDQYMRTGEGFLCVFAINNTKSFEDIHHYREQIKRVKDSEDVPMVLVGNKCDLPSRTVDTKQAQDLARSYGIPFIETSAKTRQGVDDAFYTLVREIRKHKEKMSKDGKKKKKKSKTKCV
procedure-details: HiBit degradation assay in SW1573 HiBit-KRas^G12C cells
Type: cell-based
Parameters: expressed in transfected cells; host or cells: SW1573 (clone E6), modified pcDNA3.1 vector, TK promoter
assay-setup: SW1573 HiBit-KRas^G12C, 0.1% DMSO, 24 hours; read-out: KRas^G12C-HIBit (SW1573; 0.1% DMSO) DC50*

molecule | DC50
C=CC(=O)N1CCN(c2nc(O[C@H](C)CN3CCN(CC4CN(CC(=O)N[C@H](C(=O)N5C[C@H](O)C[C@H]5C(=O)N[C@@H](C)c5ccc(-c6scnc6C)cc5)C(C)(C)C)C4)CC3)nc3c(F)c(-c4cc(O)cc5ccccc45)c(Cl)cc23)CC1 [Compound 28] | 100 to 1000 nM
C=C(F)C(=O)N1CCN(c2nc(O[C@H](C)CN3CCC(COCC(=O)N[C@H](C(=O)N4C[C@H](O)C[C@H]4C(=O)N[C@@H](C)c4ccc(-c5scnc5C)cc4)C(C)(C)C)CC3)nc3c2CCN(c2cc(O)cc4ccccc24)C3)C[C@@H]1CC#N [Compound 24] | > 1000 nM
C=CC(=O)N1CCN(c2nc(O[C@H](C)CN3CCC(OCCOc4cc(-c5scnc5C)ccc4CNC(=O)[C@@H]4C[C@@H](O)CN4C(=O)[C@H](c4cc(C)no4)C(C)C)CC3)nc3c(F)c(-c4cc(O)cc5ccccc45)c(Cl)cc23)CC1 [Compound 77] | 100 to 1000 nM
C=CC(=O)N1CCN(c2nc(O[C@H](C)CN3CCC(OCCOCC(=O)N[C@H](C(=O)N4C[C@H](O)C[C@H]4C(=O)N[C@@H](C)c4ccc(-c5scnc5C)cc4)C(C)(C)C)CC3)nc3c(F)c(-c4cc(O)cc5ccccc45)c(Cl)cc23)[C@@H](C)C1 [Compound 39] | 100 to 1000 nM

----------
study-system: HiBit-KRAS^G12C (Homo sapiens, UniProt P01116, G12C)
procedure-details: HiBit degradation assay in SW1573 HiBit-KRas^G12C cells
Assay type: cell-based
Set-up: expressed in transfected cells; host or cells: SW1573 (clone E6), modified pcDNA3.1 vector, TK promoter
assay-setup: read-out: KRas^G12C-HiBiT (SW1573; 0.5% DMSO) IC50***; SW1573 HiBit-KRas^G12C, 0.5% DMSO, 24 hours
Procedure: Reagents. SW1573 (CRL-2170) and MiaPaCa-2 (CRL-1420) cells were purchased from ATCC. Both cell lines are […] for the G12C mutation in KRAS. […] Either SW1573 HiBit-KRas^G12C or MiaPaCa-2 HiBit-KRas^G12C cells were plated at 9000 cells/well in a 384 well plate (Corning #3770). […] Plates were then allowed to equilibrate to room temperature and fluorescence was measured using a Perkin-Elmer EnVision. […]
DC50 values by entry

compound | study-system | DC50
C=CC(=O)N1CCN(c2nc(OCCN3CCC(COc4cc([C@H](C(=O)N5C[C@H](O)C[C@H]5C(=O)N[C@@H](C)c5ccc(C#N)cc5)C(C)C)on4)CC3)nc3c(F)c(-c4cc(O)cc5ccccc45)c(Cl)cc23)C[C@@H]1CC#N [Compound 160] | HiBit-KRAS^G12C (Homo sapiens, UniProt P01116, G12C) | > 1000 nM
C=C(F)C(=O)N1CCN(c2nc(OCCN3CCC(COc4cc([C@@H](C(=O)N5C[C@H](O)C[C@H]5C(=O)N[C@@H](C)c5ccc(-c6scnc6C)cc5)C(C)C)on4)CC3)nc3c(F)c(-c4cc(O)cc5ccccc45)c(Cl)cc23)C[C@@H]1CC#N [Compound 171] | HiBit-KRAS^G12C (Homo sapiens, UniProt P01116, G12C) | > 1000 nM
C=C(F)C(=O)N1CCN(c2nc(OCCN3CCC(F)(COc4cc([C@H](C(=O)N5C[C@H](O)C[C@H]5C(=O)N[C@@H](C)c5ccc(-c6scnc6C)cc5)C(C)C)on4)CC3)nc3c(F)c(-c4cc(O)cc5ccccc45)c(Cl)cc23)C[C@@H]1CC#N (atropisomer, axis not shown) [Compound 121] | HiBit-KRAS^G12C (Homo sapiens, UniProt P01116, G12C) | < 100 nM
C=CC(=O)N1CCN(c2nc(O[C@H]3CCC[C@@H]3N3CCC(COCC(=O)N[C@H](C(=O)N4C[C@H](O)C[C@H]4C(=O)N[C@@H](C)c4ccc(-c5scnc5C)cc4)C(C)(C)C)CC3)nc3c(F)c(-c4cc(O)cc5ccccc45)c(Cl)cc23)C[C@@H]1CC#N [Compound 127] | HiBit-KRAS^G12C (Homo sapiens, UniProt P01116, G12C) | 100 to 1000 nM
C=CC(=O)N1CCN(c2nc(OCCN3CCC(CN(C)c4cc([C@@H](C(=O)N5C[C@H](O)C[C@H]5C(=O)N[C@@H](C)c5ccc(-c6scnc6C)cc5)C(C)C)on4)CC3)nc3c(F)c(-c4cc(O)cc5ccccc45)c(Cl)cc23)C[C@@H]1CC#N [Compound 144] | HiBit-KRAS^G12C (Homo sapiens, UniProt P01116, G12C) | 100 to 1000 nM
C=C(F)C(=O)N1CCN(c2nc(OCCN3CCC4(CC3)CN(c3cc([C@@H](C(=O)N5C[C@H](O)C[C@H]5C(=O)N[C@@H](C)c5ccc(-c6ccnn6C)cc5)C(C)C)on3)C4)nc3c(F)c(-c4cc(O)cc5ccccc45)c(Cl)cc23)C[C@@H]1CC#N (atropisomer, axis not shown) [Compound 103] | HiBit-KRAS^G12C (Homo sapiens, UniProt P01116, G12C) | 100 to 1000 nM
Cc1ncsc1-c1ccc([C@H](C)NC(=O)[C@@H]2C[C@@H](O)CN2C(=O)[C@@H](NC(=O)COCC2CCN(CCOc3nc(N4CCN(C(=O)/C=C/CN(C)C)[C@@H](CC#N)C4)c4cc(Cl)c(-c5cc(O)cc6ccccc56)c(F)c4n3)CC2)C(C)(C)C)cc1 [Compound 165] | HiBit-KRAS^G12C (Homo sapiens, UniProt P01116, G12C) | 100 to 1000 nM
C=CC(=O)N1CCN(c2nc(OCCN3CC[C@@H](COCC(=O)N[C@H](C(=O)N4C[C@H](O)C[C@H]4C(=O)N[C@@H](C)c4ccc(-c5scnc5C)cc4)C(C)(C)C)C3)nc3c(F)c(-c4cc(O)cc5ccccc45)c(Cl)cc23)C[C@@H]1CC#N [Compound 140] | HiBit-KRAS^G12C (Homo sapiens, UniProt P01116, G12C) | 100 to 1000 nM

----------
study-system: HiBit-KRAS^G12C (Homo sapiens, UniProt P01116, G12C)
procedure-details: HiBit degradation assay in SW1573 HiBit-KRas^G12C cells
Assay type: cell-based
Set-up: expressed in transfected cells; host or cells: SW1573 (clone E6), modified pcDNA3.1 vector, TK promoter
assay-setup: SW1573, SW1573 HiBit-KRas^G12C, 0.5% DMSO, 24 hours; read-out: KRas^G12C-HiBiT (SW1573; 0.5% DMSO) Dmax**
Examples of molecules with documented Dmax follow.

molecule | Dmax
C=CC(=O)N1C[C@H](C)N(c2nc(OCCN3CCC(COCC(=O)N[C@H](C(=O)N4C[C@H](O)C[C@H]4C(=O)N[C@@H](C)c4ccc(-c5scnc5C)cc4)C(C)(C)C)CC3)nc3c(F)c(-c4cc(O)cc5ccccc45)c(Cl)cc23)C[C@H]1C | 35 to 70%
C=CC(=O)N1CCN(c2nc(OCCN3CC[C@@H](COCC(=O)N[C@H](C(=O)N4C[C@H](O)C[C@H]4C(=O)N[C@@H](C)c4ccc(-c5scnc5C)cc4)C(C)(C)C)C3)nc3c(F)c(-c4cc(O)cc5ccccc45)c(Cl)cc23)C[C@@H]1CC#N | 35 to 70%
C=CC(=O)N1CCN(c2nc(O[C@@H](C)CN3CCC(OCCOCC(=O)N[C@H](C(=O)N4C[C@H](O)C[C@H]4C(=O)N[C@@H](C)c4ccc(-c5scnc5C)cc4)C(C)(C)C)CC3)nc3c(F)c(-c4cc(O)cc5ccccc45)c(Cl)cc23)CC1 | 35 to 70%
C=CC(=O)N1CCN(c2nc(OCCN3CCC(COCC(=O)N[C@H](C(=O)N4C[C@H](O)C[C@H]4C(=O)N[C@@H](C)c4ccc(-c5scnc5C)cc4)C(C)(C)C)CC3)nc3c(F)c(-c4cc(O)cc5ccccc45)c(Cl)cc23)[C@@H](C)C1 | > 70%
C=CC(=O)N1CCN(c2nc(OCCN3CCC(COCC(=O)N[C@H](C(=O)N4C[C@H](O)C[C@H]4C(=O)N[C@@H](C)c4ccc(-c5scnc5C)cc4)C(C)(C)C)CC3)nc3c(F)c(-c4cc(O)cc(C)c4C)c(Cl)cc23)C[C@@H]1CC#N | > 70%
C=CC(=O)N1CCN(c2nc(OCCN3CCC(COCC(=O)N[C@H](C(=O)N4C[C@H](O)C[C@H]4C(=O)N[C@@H](C)c4ccc(-c5scnc5C)cc4)C(C)(C)C)CC3)nc3c(F)c(-c4cccc5cccc(C)c45)c(Cl)cc23)C[C@@H]1CC#N | 35 to 70%
C=C(F)C(=O)N1CCN(c2nc(OCCN3CCC4(CC3)CN(c3cc([C@H](C(=O)N5C[C@H](O)C[C@H]5C(=O)N[C@@H](C)c5ccc(-c6scnc6C)cc5)C(C)C)on3)C4)nc3c(F)c(-c4cc(O)cc5ccccc45)c(Cl)cc23)C[C@@H]1CC#N (atropisomer, axis not shown) | 35 to 70%
C=CC(=O)N1CCN(c2nc(O[C@H](C)CN3CCC(COc4cc([C@H](C(=O)N5C[C@H](O)C[C@H]5C(=O)N[C@@H](C)c5ccc(-c6scnc6C)cc5)C(C)C)on4)CC3)nc3c(F)c(-c4cc(O)cc5ccccc45)c(Cl)cc23)C[C@@H]1CC#N | > 70%
C=C(F)C(=O)N1CCN(c2nc(O[C@H](C)CN3CCC(COc4cc([C@H](C(=O)N5C[C@H](O)C[C@H]5C(=O)N[C@@H](C)c5ccc(-c6scnc6C)cc5)C(C)C)on4)CC3)nc3c(F)c(-c4cc(O)cc5ccccc45)c(Cl)cc23)C[C@@H]1CC#N | < 35%
C=CC(=O)N1CCN(c2nc(O[C@H](C)CN3CCC(COCC(=O)N[C@H](C(=O)N4C[C@H](O)C[C@H]4C(=O)N[C@@H](C)c4ccc(-c5scnc5C)cc4)C(C)(C)C)CC3)nc3c2CCN(c2cc(O)cc4ccccc24)C3)C[C@@H]1CC#N | 35 to 70%
C=CC(=O)N1CCN(c2nc(N3CCN(C[C@H]4C[C@H](OCC(=O)N[C@H](C(=O)N5C[C@H](O)C[C@H]5C(=O)N[C@@H](C)c5ccc(-c6scnc6C)cc5)C(C)(C)C)C4)CC3)nc3c(F)c(-c4cc(O)cc5ccccc45)c(Cl)cc23)C[C@@H]1CC#N | 35 to 70%
C=CC(=O)N1CCN(c2nc(OCCN3CCC(COCC(=O)N[C@H](C(=O)N4C[C@@H](O)C[C@H]4C(=O)N[C@@H](C)c4ccc(-c5scnc5C)cc4)C(C)(C)C)CC3)nc3c(F)c(-c4cc(O)cc5ccccc45)c(Cl)cc23)C[C@@H]1CC#N (atropisomer, axis not shown) | < 35%
C=CC(=O)N1CCN(c2nc(OCCN3CCC(COCC(=O)N[C@H](C(=O)N4C[C@H](O)C[C@H]4C(=O)N[C@@H](C)c4ccc(-c5scnc5C)cc4)C(C)(C)C)CC3)nc3c(F)c(-c4nc(N)cc5ccccc45)c(Cl)cc23)C[C@@H]1CC#N | 35 to 70%
C=C(F)C(=O)N1CCN(c2nc(OCCN3CCC(OCCOCC(=O)N[C@H](C(=O)N4C[C@H](O)C[C@H]4C(=O)N[C@@H](C)c4ccc(-c5scnc5C)cc4)C(C)(C)C)CC3)nc3c(F)c(-c4cc(O)cc5ccccc45)c(Cl)cc23)C[C@@H]1CC#N | > 70%
C=CC(=O)N1CCN(c2nc(OCCN3CCC(COCC(=O)N[C@H](C(=O)N4C[C@H](O)C[C@H]4C(=O)N[C@@H](C)c4ccc(-c5scnc5C)cc4)C(C)(C)C)CC3)nc3c(F)c(-c4c(C)ccc5[nH]ncc45)c(Cl)cc23)C[C@@H]1CC#N | > 70%
